Numbers sourced from PubChem BioAssay AID1918998.

- Test system: 521955-158-R2-J5-PDC complex spheroid growth
- Experiment Notes: Anticancer human tumor 521955-158-R2-J5-PDC patient-derived pancreatic carcinoma cell line growth inhibition [AhR]
- Assay Context: second compound 3.16 µM; first compound 10 µM; active compounds read low
Measured viability, T/C by item
Express the result in % but write the number alone.

Record excerpt, results attached:
Molecule	Display Unit	viability, T/C
COc1cc(C2c3cc4c(cc3C(OC3OC5COC(C)OC5C(O)C3O)C3COC(=O)C23)OCO4)cc(OC)c1O (stereo unspecified) + CC(CO)NC(=O)c1cc(-c2ccc(Cl)cc2)nn(-c2cnn(C)c2)c1=O	%	22.8
NS(=O)(=O)OCC1CC(n2ccc3c(NC4CCc5ccccc54)ncnc32)CC1O (stereo unspecified) + Cc1ccccc1N=Nc1ccc(NC(=O)c2ccnn2C)c(C)c1	%	21.8
COc1cc(C2c3cc4c(cc3C(OC3OC5COC(C)OC5C(O)C3O)C3COC(=O)C23)OCO4)cc(OC)c1O (stereo unspecified) + Cc1ccccc1N=Nc1ccc(NC(=O)c2ccnn2C)c(C)c1	%	17.9
CC1(C)CCC(CN2CCN(c3ccc(C(=O)NS(=O)(=O)c4ccc(NCC5CCOCC5)c([N+](=O)[O-])c4)c(Oc4cnc5[nH]ccc5c4)c3)CC2)=C(c2ccc(Cl)cc2)C1 + Cc1cncc(-c2nc(NCCc3c[nH]c4ccccc34)c3ncn(C(C)C)c3n2)c1	%	94.9
CC(C)c1c(-c2ccccc2)nc2c(C#N)c[nH]n2c1=O + Cc1cncc(-c2nc(NCCc3c[nH]c4ccccc34)c3ncn(C(C)C)c3n2)c1	%	136

// switching to the query molecule
The molecule listed as O=C(C=Cc1cccc(S(=O)(=O)Nc2ccccc2)c1)NO + Cc1ccccc1N=Nc1ccc(NC(=O)c2ccnn2C)c(C)c1 has a reported viability, T/C of 39.4

###

- Tested on: 521955-158-R2-J5-PDC complex spheroid growth
- Experiment Notes: Anticancer human tumor 521955-158-R2-J5-PDC cell line growth inhibition [AhR]
- Assay Context: second compound 3.16 µM; first compound 0.0316 µM; active compounds read low
Readout Kind: viability, T/C (%)
Express the result in % but write the number alone.

Record excerpt, results attached:
Compound	viability, T/C (%)
CC[C@@]1(O)C(=O)OCc2c1cc1n(c2=O)Cc2cc3c(CN(C)C)c(O)ccc3nc2-1 + Cc1cncc(-c2nc(NCCc3c[nH]c4ccccc34)c3ncn(C(C)C)c3n2)c1	72.6
O=C(C=Cc1cccc(S(=O)(=O)Nc2ccccc2)c1)NO + Cc1cncc(-c2nc(NCCc3c[nH]c4ccccc34)c3ncn(C(C)C)c3n2)c1	135

The compound listed as CC1(C)CCC(CN2CCN(c3ccc(C(=O)NS(=O)(=O)c4ccc(NCC5CCOCC5)c([N+](=O)[O-])c4)c(Oc4cnc5[nH]ccc5c4)c3)CC2)=C(c2ccc(Cl)cc2)C1 + Cc1cncc(-c2nc(NCCc3c[nH]c4ccccc34)c3ncn(C(C)C)c3n2)c1 has a reported viability, T/C of 146

The compound listed as Nc1ncn(C2CC(O)C(CO)O2)c(=O)n1 (stereo unspecified) + Cc1cncc(-c2nc(NCCc3c[nH]c4ccccc34)c3ncn(C(C)C)c3n2)c1 has a reported viability, T/C of 145

The compound listed as CC(C)c1c(-c2ccccc2)nc2c(C#N)c[nH]n2c1=O + CC(CO)NC(=O)c1cc(-c2ccc(Cl)cc2)nn(-c2cnn(C)c2)c1=O has a reported viability, T/C of 98.5

The compound listed as CC(C)c1c(-c2ccccc2)nc2c(C#N)c[nH]n2c1=O + Cc1ccccc1N=Nc1ccc(NC(=O)c2ccnn2C)c(C)c1 has a reported viability, T/C of 128

###

Measured viability, T/C by item
- Tested on: 521955-158-R2-J5-PDC complex spheroid growth
- Experiment Notes: Anticancer human tumor 521955-158-R2-J5-PDC cell line growth inhibition [AhR];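 also: spheroids mix tumor cells with HUVEC endothelium and human MSC stroma; luminescence taken as viability surrogate after a week of drug exposure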
- Assay Context: second compound 3.16 µM; first compound 0.00949 µM; active compounds read low
Express the result in % but write the number alone.

Record excerpt, results attached:
> print(dat)
                                   compound                         target.under.test  recorded.measurement
1  O=C(C=Cn1cnc(-c2cc(C(F)(F)F)cc(C(F)(F)F)c2)n1)NNc1cnccn1 + Cc1cncc(-c2nc(NCCc3c[nH]c4ccccc34)c3ncn(C(C)C)c3n2)c1  521955-158-R2-J5-PDC complex spheroid growth                  78.7
2  O=C(C=Cn1cnc(-c2cc(C(F)(F)F)cc(C(F)(F)F)c2)n1)NNc1cnccn1 + Cc1ccccc1N=Nc1ccc(NC(=O)c2ccnn2C)c(C)c1  521955-158-R2-J5-PDC complex spheroid growth                  53.8

// switching to the query compound
The compound listed as CCc1c2c(nc3ccc(O)cc13)-c1cc3c(c(=O)n1C2)COC(=O)[C@]3(O)CC + Cc1ccccc1N=Nc1ccc(NC(=O)c2ccnn2C)c(C)c1 has a reported viability, T/C of 33.9

###

Measured viability, T/C by item
- Tested on: 521955-158-R2-J5-PDC complex spheroid growth
- Experiment Notes: Anticancer human tumor 521955-158-R2-J5-PDC cell line growth inhibition [AhR];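 also: spheroids mix tumor cells with HUVEC endothelium and human MSC stroma; luminescence taken as viability surrogate after a week of drug exposure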
- Assay Context: second compound 0.316 µM; first compound 0.0316 µM; active compounds read low

Record excerpt, results attached:
Molecule	viability, T/C
COc1cc(C2c3cc4c(cc3C(OC3OC5COC(C)OC5C(O)C3O)C3COC(=O)C23)OCO4)cc(OC)c1O (configuration not stated) + Cc1ccccc1N=Nc1ccc(NC(=O)c2ccnn2C)c(C)c1	83.6%
CC1COCCN1c1cc(-c2ccnn2C)c2ccnc(-c3ccn[nH]3)c2n1 (configuration not stated) + CC(CO)NC(=O)c1cc(-c2ccc(Cl)cc2)nn(-c2cnn(C)c2)c1=O	110%

The molecule listed as Cn1ncnc1C1c2n[nH]c(=O)c3cc(F)cc(c23)NC1c1ccc(F)cc1 (configuration not stated) + CC(CO)NC(=O)c1cc(-c2ccc(Cl)cc2)nn(-c2cnn(C)c2)c1=O has a reported viability, T/C of 74.1%

###

- Tested on: 521955-158-R2-J5-PDC complex spheroid growth
- Experiment Notes: Anticancer human tumor 521955-158-R2-J5-PDC cell line growth inhibition [AhR];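 also: spheroids mix tumor cells with HUVEC endothelium and human MSC stroma; luminescence taken as viability surrogate after a week of drug exposure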
- Assay Context: second compound 1 µM; first compound 3.16 µM; active compounds read low
Measured viability, T/C by item
Express the result in % but write the number alone.

Record excerpt, results attached:
Compound	Display Unit	viability, T/C
CC1(C)CCC(CN2CCN(c3ccc(C(=O)NS(=O)(=O)c4ccc(NCC5CCOCC5)c([N+](=O)[O-])c4)c(Oc4cnc5[nH]ccc5c4)c3)CC2)=C(c2ccc(Cl)cc2)C1 + Cc1cncc(-c2nc(NCCc3c[nH]c4ccccc34)c3ncn(C(C)C)c3n2)c1	%	111
COc1cc(Nc2ncc3c(n2)-c2ccc(Cl)cc2C(c2c(F)cccc2OC)=NC3)ccc1C(=O)O + Cc1cncc(-c2nc(NCCc3c[nH]c4ccccc34)c3ncn(C(C)C)c3n2)c1	%	70.7

The compound listed as COc1cc(Nc2ncc3c(n2)-c2ccc(Cl)cc2C(c2c(F)cccc2OC)=NC3)ccc1C(=O)O + CC(CO)NC(=O)c1cc(-c2ccc(Cl)cc2)nn(-c2cnn(C)c2)c1=O has a reported viability, T/C of 48.6

The compound listed as Nc1ccn(C2OC(CO)C(O)C2(F)F)c(=O)n1 (stereo not given) + Cc1cncc(-c2nc(NCCc3c[nH]c4ccccc34)c3ncn(C(C)C)c3n2)c1 has a reported viability, T/C of 38.3

The compound listed as O=C(C=Cc1cccc(S(=O)(=O)Nc2ccccc2)c1)NO + Cc1cncc(-c2nc(NCCc3c[nH]c4ccccc34)c3ncn(C(C)C)c3n2)c1 has a reported viability, T/C of 73.6

###

- Test system: 521955-158-R2-J5-PDC complex spheroid growth
- Experiment Notes: Anticancer human tumor 521955-158-R2-J5-PDC cell line growth inhibition [AhR];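 also: spheroids mix tumor cells with HUVEC endothelium and human MSC stroma; luminescence taken as viability surrogate after a week of drug exposure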
- Assay Context: second compound 0.1 µM; first compound 0.0316 µM; active compounds read low
Readout Kind: viability, T/C (%)
Express the result in % but write the number alone.

Record excerpt, results attached:
Compound	viability, T/C, %
CC1(C)CCC(CN2CCN(c3ccc(C(=O)NS(=O)(=O)c4ccc(NCC5CCOCC5)c([N+](=O)[O-])c4)c(Oc4cnc5[nH]ccc5c4)c3)CC2)=C(c2ccc(Cl)cc2)C1 + CC(CO)NC(=O)c1cc(-c2ccc(Cl)cc2)nn(-c2cnn(C)c2)c1=O	103
CC1COCCN1c1cc(-c2ccnn2C)c2ccnc(-c3ccn[nH]3)c2n1 (stereo not drawn) + Cc1ccccc1N=Nc1ccc(NC(=O)c2ccnn2C)c(C)c1	122

The compound listed as COc1cc(C2c3cc4c(cc3C(OC3OC5COC(C)OC5C(O)C3O)C3COC(=O)C23)OCO4)cc(OC)c1O (stereo not drawn) + Cc1ccccc1N=Nc1ccc(NC(=O)c2ccnn2C)c(C)c1 has a reported viability, T/C of 99.3
